Reference source for all entries: patent US20250129067A1

System: Oligodendrocyte progenitor cells (OPCs)
test.protocol: In vitro OPC differentiation assay, GPR17 expression (immunocytochemistry)
condition.set: 3 μM (10× concentration, final 0.3 μM); 72 hours; fold change over vehicle
measured.endpoint: GPR17 Fold Induction (Over Vehicle; 3 μM)

[
  {
    "compound": "Cc1ccc(Cc2cnc(N3CCN(c4cnn5cc(-c6cnn(C)c6)ccc45)CC3)nc2)cc1 [Compound 67]",
    "numeric.value": 3.41
  },
  {
    "compound": "Cn1cc(-c2ccc3c(-c4ccn(-c5ncc(Cc6ccccc6)cn5)c4)cnn3c2)cn1 [Compound 76]",
    "numeric.value": 6.18
  },
  {
    "compound": "CC(OC(=O)N1CCN(c2cnn3cc(-c4cnn(C)c4)ccc23)CC1)c1ccc(C(F)(F)F)c(F)c1 (centres unmarked) [Compound 273]",
    "numeric.value": 9.05
  },
  {
    "compound": "Cn1cc(-c2cc3ncc(N4CCN(C(=O)NCc5ccc(C(F)(F)F)cc5)CC4)n3cn2)cn1 [Compound 118]",
    "numeric.value": 0.93
  },
  {
    "compound": "Cn1cc(-c2ccc3c(C4=CCC(C(=O)OCc5ccccc5)C4)cnn3c2)cn1 (centres unmarked) [Compound 133]",
    "numeric.value": 3.02
  },
  {
    "compound": "Cc1ccc(C(C)OC(=O)N2CCN(c3cnn4cc(-c5cnn(C)c5)ccc34)CC2)cn1 (centres unmarked) [Compound 317]",
    "numeric.value": 12.64
  },
  {
    "compound": "COC(c1ccc(F)cc1)c1cnc(N2CCN(c3cnn4cc(-c5cnn(C)c5)ccc34)CC2)nc1 (centres unmarked) [Compound 263]",
    "numeric.value": 5.98
  },
  {
    "compound": "C=C(c1ccc(F)cc1)c1cnc(N2CCN(c3cnn4cc(-c5cnn(C)c5)ccc34)CC2)nc1 [Compound 256]",
    "numeric.value": 4.15
  },
  {
    "compound": "COCCn1cc(-c2cc3ncc(N(C)CCN(C)C(=O)OC(C)(C)C)n3cn2)cn1 [Compound 97]",
    "numeric.value": 1.25
  },
  {
    "compound": "Cn1cc(-c2ccc3c(N4CCN(c5ncc(C(O)C6CCCCC6)cn5)CC4)cnn3c2)cn1 (centres unmarked) [Compound 61]",
    "numeric.value": 10.09
  }
]

A: CC(C)(C)OC(=O)N1CCN(c2cnn3cc(C4CCOCC4)ccc23)CC1 [Compound 224]
B: COc1ccc(CN2CCN(c3cnn4cc(-c5cnn(C)c5)ccc34)CC2)cc1 [Compound 253]
// task: argmin of GPR17 Fold Induction (Over Vehicle; 3 μM) over [ A , B ] Bench note: the answer is the label of the chosen record.
A

----------
System: Oligodendrocyte progenitor cells (OPCs)
test.protocol: In vitro OPC differentiation assay, GPR17 expression (immunocytochemistry)
condition.set: 3 μM (10× concentration, final 0.3 μM); 72 hours; fold change over vehicle
measured.endpoint: GPR17 Fold Induction (Over Vehicle; 3 μM)

Field: example entries. Status: answers known.
[
  {
    "molecule": "C[C@@H](OC(=O)N1CCN(c2cnn3cc(-c4cnn(C)c4)cnc23)CC1)c1ccccc1",
    "numeric.value": 6.68
  },
  {
    "molecule": "Cn1cc(-c2ccc3c(N4CCN(c5nc(Cc6ccccc6)co5)CC4)cnn3c2)cn1",
    "numeric.value": 7.31
  },
  {
    "molecule": "Cn1cc(-c2ccc3c(N4CCN(Cc5ccc(Cl)cc5)CC4)cnn3c2)cn1",
    "numeric.value": 1.94
  },
  {
    "molecule": "Cn1cnc(-c2ccc3c(N4CCN(C(=O)OC(C)(C)C)CC4)cnn3c2)c1",
    "numeric.value": 11.69
  }
]

a: Cn1cc(-c2ccc3c(N4CCN(C(=O)OCc5cccc(C#N)c5)CC4)cnn3c2)cn1
b: CN(CCN(C)c1cnc2nc(-c3cccnc3)ccn12)C(=O)OC(C)(C)C
Task for the reader: decide whether a or b has the larger GPR17 Fold Induction (Over Vehicle; 3 μM). Bench note: the answer is the label of the chosen record.
a
(a: 6.11, b: 0.91)

A: C[C@@H](NC(=O)N1CCN(c2cnn3cc(-c4cnn(C)c4)ccc23)CC1)c1ccc(C(F)(F)F)cc1
B: Cn1cc(-c2ccc3c(N4CCN(c5ncn(Cc6ccccc6)n5)CC4)cnn3c2)cn1
C: Cn1cc(-c2ccn3c(N4CCN(c5ncc(Cc6ccccc6)cn5)CC4)cnc3c2)cn1
D: Cn1cc(-c2ccc3c(C4=CCC(CCc5ccccc5)CC4)cnn3c2)cn1 (stereo not drawn)
Rank ascending by GPR17 Fold Induction (Over Vehicle; 3 μM). Arrange the labels as the request states and list them.
D, B, A, C
(D: 2.24, B: 3.92, A: 5.92, C: 9.53)
